Item-by-item account of Activity
system: Choline O-acetyltransferase (Rattus norvegicus) (UniProt P32738)
Sequence (P32738 whole entry): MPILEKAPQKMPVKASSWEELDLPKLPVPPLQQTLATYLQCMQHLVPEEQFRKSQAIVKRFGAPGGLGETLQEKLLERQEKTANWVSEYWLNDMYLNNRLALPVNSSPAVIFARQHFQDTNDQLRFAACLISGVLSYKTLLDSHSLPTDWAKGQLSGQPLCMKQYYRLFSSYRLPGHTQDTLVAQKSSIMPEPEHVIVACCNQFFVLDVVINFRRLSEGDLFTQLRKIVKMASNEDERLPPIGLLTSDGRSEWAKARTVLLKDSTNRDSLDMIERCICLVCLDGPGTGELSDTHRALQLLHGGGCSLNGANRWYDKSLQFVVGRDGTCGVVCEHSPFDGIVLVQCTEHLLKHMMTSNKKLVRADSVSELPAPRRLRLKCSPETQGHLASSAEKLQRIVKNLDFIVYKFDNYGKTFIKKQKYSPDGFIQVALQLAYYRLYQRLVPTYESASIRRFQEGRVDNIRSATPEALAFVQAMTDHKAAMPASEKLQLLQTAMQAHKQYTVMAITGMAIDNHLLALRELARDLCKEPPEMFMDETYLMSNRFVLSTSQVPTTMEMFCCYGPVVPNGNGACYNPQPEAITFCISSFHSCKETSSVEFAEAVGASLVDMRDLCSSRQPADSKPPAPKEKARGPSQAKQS
assay.overview: Induction of ChAT activity in rat forebrain cells at 1 ug/mL relative to control
Format: cell-based

{"columns": ["structure.string", "u", "Activity"],
 "data": [
  ["C=C1CC[C@@H]2O[C@]2(COC(=O)CCCCCCCCCCCCC)C[C@H]2O[C@@]23[C@H](C(C)(C)O)CC[C@@]3(C)CC1", "%", 174],
  ["C=C1CC[C@@H](Cl)[C@@](O)(COC(=O)c2ccc(Br)cc2)C[C@H]2O[C@@]23[C@H](C(C)(C)O)CC[C@@]3(C)CC1", "%", 95.3],
  ["C=C1CC[C@@H]2O[C@]2(COC(=O)c2ccccc2)C[C@H]2O[C@@]23[C@H](C(C)(C)O)CC[C@@]3(C)CC1", "%", 173],
  ["C=C1CC[C@@H]2O[C@]2(COC(=O)CCCCC)C[C@H]2O[C@@]23[C@H](C(C)(C)O)CC[C@@]3(C)CC1", "%", 164],
  ["C=C1CC/C=C(/CO)C/C=C2\\[C@H](C(C)(C)O)CC[C@@]2(C)CC1", "%", 122]
]}

These measurements were taken from ChEMBL document CHEMBL1154557.
